# ASSAY_TARGET: Eosinophil peroxidase (Homo sapiens)
# Sequence (P11678 140-250 limits assumed): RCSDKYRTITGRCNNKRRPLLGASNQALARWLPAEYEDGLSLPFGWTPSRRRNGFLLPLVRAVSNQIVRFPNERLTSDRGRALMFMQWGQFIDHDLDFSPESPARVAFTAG
# Sequence (P11678 251-715 limits assumed): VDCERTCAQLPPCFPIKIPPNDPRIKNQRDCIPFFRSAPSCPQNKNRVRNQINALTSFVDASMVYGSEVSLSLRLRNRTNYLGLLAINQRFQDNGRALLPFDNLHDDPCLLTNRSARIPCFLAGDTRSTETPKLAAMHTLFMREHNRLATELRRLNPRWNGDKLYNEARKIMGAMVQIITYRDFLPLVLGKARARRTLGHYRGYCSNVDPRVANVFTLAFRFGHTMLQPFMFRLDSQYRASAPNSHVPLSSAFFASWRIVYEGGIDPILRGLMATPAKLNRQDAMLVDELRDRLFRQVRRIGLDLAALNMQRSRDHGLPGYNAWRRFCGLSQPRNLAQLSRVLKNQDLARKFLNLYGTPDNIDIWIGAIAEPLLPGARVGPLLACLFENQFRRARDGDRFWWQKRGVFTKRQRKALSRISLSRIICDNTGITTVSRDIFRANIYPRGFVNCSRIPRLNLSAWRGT
# MEASUREMENT_PROTOCOL: Inhibition of human EPX bromination activity using tyrosine as substrate by measuring 3-bromo tyrosine formation incubated for 10 mins
MEASUREMENT_NAME: pIC50
Quick note: pIC50 means taking -log10 of the concentration in moles per liter.

Briefly, pIC50 measured for `Nc1cc(Cc2ccccc2)c2nn[nH]c2n1` : 7.49

###

# ASSAY_TARGET: Myeloperoxidase (Homo sapiens, UniProt P05164)
# Sequence (P05164 165-273 limits assumed): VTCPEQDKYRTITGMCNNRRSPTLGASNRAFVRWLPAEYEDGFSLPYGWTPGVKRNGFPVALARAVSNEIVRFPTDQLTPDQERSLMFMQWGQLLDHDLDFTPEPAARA
# Sequence (P05164 279-745 limits assumed): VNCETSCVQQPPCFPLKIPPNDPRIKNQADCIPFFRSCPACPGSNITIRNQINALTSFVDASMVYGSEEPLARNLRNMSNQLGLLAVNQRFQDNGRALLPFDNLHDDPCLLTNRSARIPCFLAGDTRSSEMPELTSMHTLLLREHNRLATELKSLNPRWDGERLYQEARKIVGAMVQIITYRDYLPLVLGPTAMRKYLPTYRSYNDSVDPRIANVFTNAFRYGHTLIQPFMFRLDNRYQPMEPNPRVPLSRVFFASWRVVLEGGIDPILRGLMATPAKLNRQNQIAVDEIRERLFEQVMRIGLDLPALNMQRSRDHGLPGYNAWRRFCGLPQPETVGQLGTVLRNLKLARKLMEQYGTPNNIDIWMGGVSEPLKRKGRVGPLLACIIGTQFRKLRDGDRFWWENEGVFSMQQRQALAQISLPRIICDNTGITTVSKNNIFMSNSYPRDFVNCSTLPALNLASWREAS
# MEASUREMENT_PROTOCOL: Inhibition of recombinant human MPO incubated for 10 mins in presence of 240 mM NaCl and 10 uM H2O2 by aminophenyl fluorescein based assay
pIC50: −log10 of the molar value.
If the reported pIC50 equals or exceeds 7, assign Fulfilled. If not, assign Not fulfilled.

Example entries and their recorded answers appear below.
Nc1cc(Cc2cccc(Cl)c2)c2nn[nH]c2n1 ... Fulfilled
Nc1nc(CCc2ccccc2)c2nn[nH]c2n1 ... Not fulfilled
CN(Cc1ccccc1)c1nc(N)nc2[nH]nnc12 ... Not fulfilled
Nc1cc(Cc2ccc(Cl)cc2)c2nn[nH]c2n1 ... Not fulfilled
Nc1cc(Cc2ccccc2F)c2nn[nH]c2n1 ... Fulfilled

Qu. Please check the record `Nc1cc(Cc2cccc(C(F)(F)F)c2)c2nn[nH]c2n1` and state if its pIC50 is at or above 7.
Ans. Not fulfilled

Qu. Please check the record `Nc1cc(Cc2ccc3ccccc3c2)c2nn[nH]c2n1` and state if its pIC50 is at or above 7.
Ans. Fulfilled

Qu. Please check the record `COC(=O)c1cccc(Cc2cc(N)nc3[nH]nnc23)c1` and state if its pIC50 is at or above 7.
Ans. Fulfilled

Qu. Please check the record `Nc1nc(NCc2ccccc2)c2nn[nH]c2n1` and state if its pIC50 is at or above 7.
Ans. Not fulfilled
